biological target: PLU1 (KDM5B) (Homo sapiens); construct: 1-809; host or cells: E. coli; assay: Histone lysine demethylase AlphaLISA assay, PLU1; format: biochemical; conditions: substrate H3K4M3B
Sequence (Q9UGL1 1-809): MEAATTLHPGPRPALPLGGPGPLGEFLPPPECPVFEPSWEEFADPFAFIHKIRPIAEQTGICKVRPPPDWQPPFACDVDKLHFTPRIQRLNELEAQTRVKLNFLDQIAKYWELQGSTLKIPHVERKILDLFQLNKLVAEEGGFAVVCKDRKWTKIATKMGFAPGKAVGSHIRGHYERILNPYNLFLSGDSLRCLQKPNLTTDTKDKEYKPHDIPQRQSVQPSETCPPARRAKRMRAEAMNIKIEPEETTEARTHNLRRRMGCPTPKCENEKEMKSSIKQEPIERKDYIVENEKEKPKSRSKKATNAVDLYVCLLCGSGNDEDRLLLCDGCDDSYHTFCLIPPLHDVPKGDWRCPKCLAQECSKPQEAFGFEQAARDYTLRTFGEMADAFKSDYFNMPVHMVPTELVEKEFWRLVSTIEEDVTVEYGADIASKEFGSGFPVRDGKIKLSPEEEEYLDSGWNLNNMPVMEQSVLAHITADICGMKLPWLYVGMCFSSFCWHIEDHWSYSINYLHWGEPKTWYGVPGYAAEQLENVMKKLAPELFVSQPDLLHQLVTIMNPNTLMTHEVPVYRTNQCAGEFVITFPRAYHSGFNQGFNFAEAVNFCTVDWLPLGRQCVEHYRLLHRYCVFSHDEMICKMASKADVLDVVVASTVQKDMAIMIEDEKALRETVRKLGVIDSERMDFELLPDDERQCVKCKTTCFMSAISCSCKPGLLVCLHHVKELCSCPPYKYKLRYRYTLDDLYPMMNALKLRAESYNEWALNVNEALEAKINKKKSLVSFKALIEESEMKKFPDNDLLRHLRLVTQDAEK
experimentalReadout: IC50

molecule	measuredTarget	experimentalReadout	assayResult
CCOC(=O)c1ccccc1OC(=O)c1ccnc(CNCC(=O)N(CC)CCN(C)C)c1 [#59]	PLU1 (KDM5B) (Homo sapiens)	IC50	< 0.1 µM
CCN1CCCC1CNC(=O)CNCc1cc(C(=O)O)ccn1 (stereo not drawn) [#26]	PLU1 (KDM5B) (Homo sapiens)	IC50	< 0.1 µM
O=C(O)c1ccnc(CNCC(=O)N2CCCCC2CO)c1 (stereo not drawn) [#24]	PLU1 (KDM5B) (Homo sapiens)	IC50	< 0.1 µM
CN(CCCNCc1cc(C(=O)O)ccn1)Cc1ccccc1F [#36]	PLU1 (KDM5B) (Homo sapiens)	IC50	< 0.1 µM
C=CCN(CC=C)C(=O)CNCc1cc(C(=O)O)ccn1 [#17]	PLU1 (KDM5B) (Homo sapiens)	IC50	< 0.1 µM
C#CCN(C)Cc1cc(C(=O)O)ccn1 [#7]	PLU1 (KDM5B) (Homo sapiens)	IC50	0.1 to 1 µM
